Taken from ChEMBL document CHEMBL5500354.

molecular target: UniProt:P15207; assay: Binding affinity to GST/His-tagged recombinant rat androgen receptor (606 to 902 residues) ligand binding domain expressed in baculovirus expression system assessed as dissociation constant by Biolayer interferometric analysis
Sequence (P15207 whole entry S389L, the tested form may be a part): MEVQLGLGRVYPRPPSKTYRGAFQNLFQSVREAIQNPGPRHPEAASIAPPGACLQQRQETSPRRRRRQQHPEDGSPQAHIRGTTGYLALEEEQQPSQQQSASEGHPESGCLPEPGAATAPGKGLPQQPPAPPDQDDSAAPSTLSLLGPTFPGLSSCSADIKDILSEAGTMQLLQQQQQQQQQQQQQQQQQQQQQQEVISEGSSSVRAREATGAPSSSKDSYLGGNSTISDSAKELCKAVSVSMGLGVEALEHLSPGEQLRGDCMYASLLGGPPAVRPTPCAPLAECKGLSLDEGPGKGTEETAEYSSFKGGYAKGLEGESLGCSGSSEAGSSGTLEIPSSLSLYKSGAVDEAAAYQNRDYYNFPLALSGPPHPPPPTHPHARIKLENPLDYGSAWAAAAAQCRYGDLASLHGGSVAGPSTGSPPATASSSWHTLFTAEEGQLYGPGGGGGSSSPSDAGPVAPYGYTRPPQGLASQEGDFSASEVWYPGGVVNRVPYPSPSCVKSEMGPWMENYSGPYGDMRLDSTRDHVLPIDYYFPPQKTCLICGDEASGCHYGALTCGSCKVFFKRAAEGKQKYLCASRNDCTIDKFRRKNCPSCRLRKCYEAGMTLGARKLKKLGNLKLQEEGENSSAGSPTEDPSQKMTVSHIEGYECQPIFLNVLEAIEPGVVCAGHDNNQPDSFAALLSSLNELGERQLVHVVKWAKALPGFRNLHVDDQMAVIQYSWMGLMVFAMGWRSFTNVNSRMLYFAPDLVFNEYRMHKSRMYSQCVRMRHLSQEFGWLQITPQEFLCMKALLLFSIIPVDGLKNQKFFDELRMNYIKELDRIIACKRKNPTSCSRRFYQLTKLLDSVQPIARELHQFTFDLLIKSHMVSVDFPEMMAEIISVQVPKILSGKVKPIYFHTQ

[
  {
    "Compound String": "N#Cc1ccc(O[C@H]2CC[C@H](NC(=O)c3ccc(N4CCC(Cc5ccc(NC6CN(CCCF)C6)cc5)CC4)nn3)CC2)cc1Cl",
    "Kd": "590 nM"
  }
]

---

Catalogue of inhibition at 10 µM readings, one per entry.
tested on: CWR22R; experiment: cells; details: Homo sapiens, 22Rv1, 24 h, read-out: INH
Description: Antiproliferative activity against human 22Rv1 cells assessed as inhibition rate at 10 uM incubated for 24 hrs by CCK8 assay relative to control

[
  {
    "Compound String": "N#Cc1ccc(O[C@H]2CC[C@H](NC(=O)c3ccc(N4CCC(Cc5ccc(NCCCF)cc5)CC4)nn3)CC2)cc1Cl",
    "inhibition at 10 µM": "< 10%"
  },
  {
    "Compound String": "N#Cc1ccc(O[C@H]2CC[C@H](NC(=O)c3ccc(N4CCC(CN5CCN(c6ccc(NC7CN(CCCF)C7)cc6)CC5)CC4)nn3)CC2)cc1Cl",
    "inhibition at 10 µM": "> 50%"
  },
  {
    "Compound String": "N#Cc1ccc(O[C@H]2CC[C@H](NC(=O)c3ccc(N4CCC(N5CC(CF)C5)CC4)nn3)CC2)cc1Cl",
    "inhibition at 10 µM": "< 10%"
  },
  {
    "Compound String": "N#Cc1ccc(O[C@H]2CC[C@H](NC(=O)c3ccc(N4CCC(CN5CCN(C6CN(CCCF)C6)CC5)CC4)nn3)CC2)cc1Cl",
    "inhibition at 10 µM": "29%"
  },
  {
    "Compound String": "N#Cc1ccc(O[C@H]2CC[C@H](NC(=O)c3ccc(N4CCC(CN5CCN(c6ccc(/C=C/C(=O)O)cc6)CC5)CC4)nn3)CC2)cc1Cl",
    "inhibition at 10 µM": "< 10%"
  },
  {
    "Compound String": "N#Cc1ccc(O[C@H]2CC[C@H](NC(=O)c3ccc(N4CCC(CC5CN(CCCF)C5)CC4)nn3)CC2)cc1Cl",
    "inhibition at 10 µM": "< 10%"
  }
]
